Listed here: items and their measured growth.
system: SF-268 CNS; test: NCI-60 one-dose screen, 48 h (100 = growth as untreated, 0 = no growth, -100 = all killed); details: 10 µM unless noted
Compounds without any hit were thinned out: in the full panel of roughly 83,000, 20% have a hit.
Write it as a number; the unit % goes unstated.

Known results for compounds:
Compound	Assay Readout	Reported Value
CC1(C)N=C(N)N=C(N)N1c1ccc(OCCCCNC(=O)Nc2cccc(S(=O)(=O)F)c2)c(Cl)c1	growth	44.4
CC1(C)N=C(N)N=C(N)N1c1ccc(CCC(=O)Nc2cccc(S(=O)(=O)F)c2)cc1	growth	51.6
C[C@]12C[C@H](O)[C@H]3[C@@H](CCC4=CC(=O)CC[C@@]43C)[C@@H]1CC[C@@H]2O	growth	105
COc1ccc(C(=O)c2ccc([As]=O)cc2)cc1 (configuration not stated)	growth	-83.5
CNC(=O)Oc1cccc(OC)c1	growth	118
COc1cc(/C=C\c2cc(OC)c(OC)c(OC)c2)cc(N/C=C\C(=O)c2ccc(OC(F)(F)F)cc2)c1OC	growth	41.7
C[C@]12CC[C@H](OC3OC(O)C(O)C(O)C3O)C=C1CCC1C2CC[C@]2(C)[C@@H](c3ccc(=O)oc3)CC[C@]12O (some centres not stated)	growth	-99.4
O=C(CCc1ccco1)NC1CCN(CC2(c3ccc(Cl)cc3)CCC2)CC1	growth	22.1

Prompt: SF-268 CNS / growth / "C[C@]12CC[C@H]3[C@@H](C[C@@H]4N=C(c5ccc(O)cc5)S[C@@]45C[C@H](O)CC[C@]35C)[C@@H]1CC[C@@H]2O" : value?
Response: 48.6

Prompt: SF-268 CNS / growth / O=C(O)CC(Br)C(=O)CBr (configuration not stated) : value?
Response: 106

Prompt: SF-268 CNS / growth / "CC(=O)C1C(=O)N(C)C(=O)N(C)C1=O" : value?
Response: 113

Prompt: SF-268 CNS / growth / COc1ccc2c(c1)NC1=C(C(=O)OC1)C2c1cc(OC)c(OC)c(OC)c1 (configuration not stated) : value?
Response: 22.6

Prompt: SF-268 CNS / growth / "Nc1cccc(CC(=O)Nc2ccc(S(=O)(=O)F)cc2)c1" : value?
Response: 107

Prompt: SF-268 CNS / growth / "CCCCNCCc1ccccn1" : value?
Response: 107

Prompt: SF-268 CNS / growth / "CCCC(C)(C)c1ccc2c(c1)OC(C)(C)[C@@H]1CC=C(C)C[C@@H]21" : value?
Response: 93

Prompt: SF-268 CNS / growth / "C[As](=O)(O)c1ccc(C(=O)O)cc1" : value?
Response: 110

Prompt: SF-268 CNS / growth / "CC1(C)CC2(CC(C)(C)c3cc(O)c(O)cc32)c2cc(O)c(O)cc21" : value?
Response: 88.6

Prompt: SF-268 CNS / growth / "CN(Cc1cccnc1)N=O" : value?
Response: 95.5

Prompt: SF-268 CNS / growth / "O=C(CCCN1CCC2(CC1)C(=O)NCN2c1ccc(F)cc1)c1ccc(F)cc1" : value?
Response: 112

Prompt: SF-268 CNS / growth / "CC(/C=N/N=C(N)N)=N\N=C(N)N" : value?
Response: 50.3

Prompt: SF-268 CNS / growth / CCOc1c(Cl)cc(CNC(C)C(O)c2ccccc2)cc1OC (configuration not stated) : value?
Response: 66.8

====

Listed here: items and their measured growth.
system: HL-60(TB) leukemia; assay: NCI-60 one-dose screen, 48 h (100 = growth as untreated, 0 = no growth, -100 = all killed); details: 10 µM unless noted
Compounds without any hit were thinned out: in the full panel of roughly 83,000, 20% have a hit.
Write it as a number; the unit % goes unstated.

Known results for compounds:
Compound	growth [%]
O=[N+]([O-])c1cccc(N=Cc2ccc3c(c2)OCO3)c1	98.5
CCOC(=O)C1=C(CC(O)c2ccc(OC)cc2OC)NC(=O)NC1c1ccccc1 (configuration not stated)	-33.9
COc1ccc(CN2CCC(N3CCCC3=O)c3cc(Cl)ccc32)cc1 (configuration not stated)	80.2
ClC(Cl)c1nc(-c2ccccc2)n2nc(-c3ccccc3)cc2n1	-7.03
CCOC(=O)C1C(=O)C=C(c2cc(OC)c(OC)c(OC)c2)CC1c1sc(N(C)Cc2ccccc2)nc1Cl (configuration not stated)	80.4

Prompt: Return reported growth; argument: "COC(=O)/C=C1/SC(=Nc2ccc(F)cc2)N(CCc2c[nH]c3ccc(O)cc23)C1=O"
Response: -8.07

Prompt: Return reported growth; argument: "COC(=O)c1c(NC(=O)CSc2nnnn2-c2ccc(OC)cc2)sc(C)c1C"
Response: -6.74

Prompt: Return reported growth; argument: "COc1ccc(C(=O)/C=C/c2cccnc2Nc2cc(OC)c(OC)c(OC)c2)cc1"
Response: -23.2

Prompt: Return reported growth; argument: COC(=O)C(C(=O)OC)C(Br)C(Br)C(Br)c1ccccc1 (configuration not stated)
Response: 20.9

====

Tested on: HL-60(TB) leukemia
Assay: NCI-60 one-dose screen, 48 h (100 = growth as untreated, 0 = no growth, -100 = all killed)
Details: 10 µM unless noted
Protocol: Growth inhibition of the HL-60(TB) human tumor cell line is measured as a screen for anti-cancer activity. Cells are grown in 96 well plates and exposed to the test compound for 48 hours. Compounds are tested at a single concentration, which is 10^-5 M for most compounds. The reported endpoint is percent growth (GI% or GIPRCNT), where numbers from 0 - 100% represent growth inhibition, and numbers from -100% - 0 represent cell death. For example, a value of 40 represents 60% growth inhibition. […]
This is part of a sample that, as a whole, favours compounds with a hit. Of some 83,000 tested, about 20% had one in any assay.
Our labelling divides records by growth into ranges: small value = under 30%, mid value = from 30% up to 90%, large value = 90% and over

# count of solved cases: 3
Compound	Discrete Label
COc1cnc2c(c1)C(=O)c1c-2n(CCCn2ccnc2)c(=O)c2cc(Cl)ccc12	small value
O=c1oc2ccc(F)cc2c(=O)n1-c1ccc(Cl)cc1F	small value
CC(=O)N(N=O)c1ccc([N+](=O)[O-])cc1Cl	mid value

Prompt: Which class holds "CCCN(CCC)CN(CCC)CCC" ?
Response: large value

Prompt: Which class holds "COc1ccc(/C=C(/C(=O)N2CCN(Cc3ccccc3)CC2)c2cc(OC)c(OC)c(OC)c2)cc1O" ?
Response: small value

Prompt: Which class holds "CCOC(=O)c1c2c(c(C)n1Cc1ccccc1)-c1nc(N)ncc1CC2" ?
Response: large value

Prompt: Which class holds "Cc1ccc(S(=O)(=O)NCCCNc2cc(-c3cn(C(C)(C)C)nc3-c3cccc(O)c3)ccn2)cc1" ?
Response: mid value

Prompt: Which class holds "Nc1nc(SCc2cccc([N+](=O)[O-])c2)c2[nH]cnc2n1" ?
Response: large value

Prompt: Which class holds "CCn1cc(CNc2ccc(C(=O)Nc3cc4cc(OC)c(OC)cc4c(C)n3)cc2)cn1" ?
Response: mid value

Prompt: Which class holds CC1=NC(=S)NC(c2ccccc2)/C1=C1/CC(c2ccccc2O)NN1 (stereo unspecified) ?
Response: large value

====

test system: HL-60(TB) leukemia; test: NCI-60 one-dose screen, 48 h (100 = growth as untreated, 0 = no growth, -100 = all killed); settings: 10 µM unless noted
Compounds without any hit were thinned out: in the full panel of roughly 83,000, 20% have a hit. Active and inactive are the calls of the source. Rule for the calls: active = growth percent below 10; inactive = the rest.
Assay Readout: growth

Compound	Assay Readout	Reported Value
Oc1cccc2ccc(N/N=C/c3cc(CN4CCOCC4)c(O)c4ncccc34)nc12	growth	0.899% (active)
Cc1ccc(-c2nc(C(Cl)Cl)nc3cc(C)nn23)cc1	growth	-1.36% (active)
CCOc1cccc(NC2=C(Br)C(=O)C(C)=C(C)C2=O)c1	growth	-12.5% (active)

Prompt: Return reported growth; argument: "COC(=O)[C@]12CC[C@@H](C)[C@H](C)[C@@H]1C1=CC[C@@H]3[C@@]4(C)C(C=O)=C[C@@](C)(COS(C)(=O)=O)[C@@H]4C(=O)C[C@@]3(C)[C@]1(C)CC2"
Response: 31.5% (inactive)

Prompt: Return reported growth; argument: "CCn1c2ccc(N(C)C)cc2c2cc(N(C)C)ccc21"
Response: 66.1% (inactive)

Prompt: Return reported growth; argument: "CNCCOc1nc2c3cnccc3cc(-c3cc(OC)c(OC)c(OC)c3)c2c2ccncc12"
Response: -25.8% (active)

Prompt: Return reported growth; argument: "O=C(CNC(=O)c1cccc2ccccc12)Nc1ccccc1Oc1cccc(O)c1"
Response: -24.1% [5 µM] (active)

Prompt: Return reported growth; argument: CCN1C(=O)N(CC)C2C1NC(=S)N2/N=C/c1ccc(C(F)(F)F)cc1 (stereo not given)
Response: 78.8% (inactive)

Prompt: Return reported growth; argument: "CCCCCCCO"
Response: 114% (inactive)

Prompt: Return reported growth; argument: CC(=O)OC(C(=O)O)c1ccccc1 (stereo not given)
Response: 3.72% (active)

Origin of values: PubChem BioAssay (NCI)
